Each recorded value in this set is attributed to patent EP1222183B1.

target.system: human 5-HT1A-serotoninergic receptor (Homo sapiens)
Sequence (P08908 whole entry): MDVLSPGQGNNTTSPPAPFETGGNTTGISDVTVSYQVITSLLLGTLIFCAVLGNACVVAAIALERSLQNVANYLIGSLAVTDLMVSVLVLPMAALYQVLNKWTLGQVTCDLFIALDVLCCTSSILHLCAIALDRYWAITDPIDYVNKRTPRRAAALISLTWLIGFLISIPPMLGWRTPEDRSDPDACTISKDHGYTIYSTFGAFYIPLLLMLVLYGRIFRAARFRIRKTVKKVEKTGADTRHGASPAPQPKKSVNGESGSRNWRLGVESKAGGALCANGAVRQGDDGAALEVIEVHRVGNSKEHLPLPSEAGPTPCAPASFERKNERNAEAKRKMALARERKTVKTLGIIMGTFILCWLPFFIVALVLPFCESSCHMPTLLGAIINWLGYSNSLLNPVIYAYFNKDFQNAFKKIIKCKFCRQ
test.summary: Radioligand binding ([3H]8-OH-DPAT) to cloned 5-HT1A receptor in HeLa cell membranes
particulars: cloned human receptor in HeLa cells, 1.2 nM [3H]8-OH-DPAT, 30 minutes at 30°C; read-out: Affinity (Ki) 5-HT1A
endpoint.name: Ki

In [3]: df
Out[3]:
                      smiles_representation  experimental_result
0  COc1ccc(OCC(F)(F)F)cc1N1CCN(CCCNC(=O)c2cccc3c(=O)c(C)c(C(N)=O)oc23)CC1            > 1000 nM

* * *

Test system: diastolic blood pressure
test.summary: Effect on diastolic blood pressure in anaesthetised dogs after i.v. administration
Format: in vivo
particulars: dog, dose lowering diastolic blood pressure by 25%
endpoint.name: DBP ED25 (mg/kg)

                      smiles_representation             target_system  endpoint_name  experimental_result
0  Cc1c(-c2ccccc2)oc2c(C(=O)NCCCN3CCN(c4ccccc4OCC(F)(F)F)CC3)cccc2c1=O  diastolic blood pressure       DBP ED25                3.001
1  COc1ccc(C#N)cc1N1CCN(CCCNC(=O)c2cccc3c(=O)c(C)c(-c4ccccc4)oc23)CC1  diastolic blood pressure       DBP ED25               1.2976
2  CCOC(=O)c1oc2c(C(=O)NCCCN3CCN(c4cc(Cl)ccc4OC)CC3)cccc2c(=O)c1C  diastolic blood pressure       DBP ED25               0.1633
3  COc1ccc(Cl)cc1N1CCN(CCCNC(=O)c2cccc3c(=O)c(C)c(C(N)=O)oc23)CC1  diastolic blood pressure       DBP ED25                2.769
4  Cc1c(-c2ccccc2)oc2c(C(=O)NCCCN3CCN(c4cc(Cl)ccc4OCC(F)(F)F)CC3)cccc2c1=O  diastolic blood pressure       DBP ED25                1.266
